Data origin, for the record: the supplement of paper PMC10724198

System: Saccharomyces cerevisiae
experimental_details: protein stability index of tFT-peptide fusion (C-terminal peptide) (PSI (0-1 scale)); higher = more stable (slower turnover)
stated_conditions: genetic background: das1 deletion; temperature: 30 C
endpoint_name: protein stability index

> print(dat)
                             record.sequence            endpoint.name  measurement
 1      LNIGGNLVTPLC [YSH1 C-terminal 12 aa]  protein stability index        0.719
 2      YKDVQDAIRDSL [URA6 C-terminal 12 aa]  protein stability index        0.708
 3      EFHQDFFSKYRN [ALT2 C-terminal 12 aa]  protein stability index        0.707
 4      FKSGQNMLKDEL [SCJ1 C-terminal 12 aa]  protein stability index        0.681
 5     FVSHSRFFNRGT [VPS53 C-terminal 12 aa]  protein stability index        0.684
 6      QKARDFSRSVVH [ARO2 C-terminal 12 aa]  protein stability index        0.696
 7      CPPTIEIGGGGH [MIR1 C-terminal 12 aa]  protein stability index        0.712
 8      ILRNASQIVSSV [VPS1 C-terminal 12 aa]  protein stability index        0.703
 9      SNPSSHIKKKGL [RRT6 C-terminal 12 aa]  protein stability index        0.682
10  VGRHSSRLMCPG [YBR126W-B C-terminal 12 aa]  protein stability index        0.693
11     VYVENPIRLFHH [ADE16 C-terminal 12 aa]  protein stability index        0.712
12   SFVTKKKAACYR [YIL025C C-terminal 12 aa]  protein stability index        0.717
13   TKHTPKYLLNTI [YNL179C C-terminal 12 aa]  protein stability index        0.693
14  KYCRVPLPENNR [YEL008C-A C-terminal 12 aa]  protein stability index        0.709
15      SFKAYVGLPTTG [PIC2 C-terminal 12 aa]  protein stability index        0.706
16    SELQQIFPVSQQ [SPS100 C-terminal 12 aa]  protein stability index        0.706
17    RLKSQNVVTYYK [NIP100 C-terminal 12 aa]  protein stability index        0.707
18     HGNDFLQHVNRK [RSM22 C-terminal 12 aa]  protein stability index        0.716
19      YKKAATLISNIL [DNM1 C-terminal 12 aa]  protein stability index         0.71
20      DRVQRAFPKPDT [GLG2 C-terminal 12 aa]  protein stability index        0.704
21      KVWVAGQQVYQI [GUD1 C-terminal 12 aa]  protein stability index        0.697
22   CSTRRSYLRYKK [YBR285W C-terminal 12 aa]  protein stability index        0.705
23      MNNLFNPHSHDS [GTA1 C-terminal 12 aa]  protein stability index         0.71
24      LPLKLTRKVHDR [RIF2 C-terminal 12 aa]  protein stability index        0.705
25     PFLEKLTLSGLL [CDC45 C-terminal 12 aa]  protein stability index        0.714
26      DRKQSQATNATN [ARP7 C-terminal 12 aa]  protein stability index        0.687
27      IYANRDKAKKNM [OPI3 C-terminal 12 aa]  protein stability index        0.681
28  IKLARRLRGERS [YBR010W; YNL031C C-terminal 12 aa]  protein stability index        0.694
29      DTFFDRVMKVLT [NAN1 C-terminal 12 aa]  protein stability index        0.707
30      DEVTYLMFSSIM [SPG1 C-terminal 12 aa]  protein stability index        0.713
31     RAKTMNRSQSHV [PFK26 C-terminal 12 aa]  protein stability index        0.697
32  HYSPFYQLPLIF [YGR240C-A C-terminal 12 aa]  protein stability index        0.683
33      IAPEVTYRGFIE [RIM9 C-terminal 12 aa]  protein stability index        0.689
